- TEST_DESCRIPTION: Metabolic stability in Beagle dog liver microsomes assessed as intrinsic clearance at 1 uM by LC/MS/MS analysis
- Type: ADME, Canis lupus familiaris, Microsome
- MEASUREMENT_CONDITIONS: read-out: CLH (converted)
MEASURED_PROPERTY: CLint scaled at 1 µM
# answer = value followed by unit

MOLECULE_SMILES: C[C@@H](OC(=O)Nc1c(-c2ccc(NC(=O)c3cnc(C(F)(F)F)nc3)cn2)nnn1C)c1cc(F)cnc1F
MEASURED_PROPERTY: CLint scaled at 1 µM
MEAS_VALUE: 1.5 mL/min/kg

We now examine a further compound.
Which CLint scaled at 1 µM reading was recorded for the compound "C[C@@H](OC(=O)Nc1c(-c2ccc(NS(C)(=O)=O)cn2)nnn1C)c1cc(F)cnc1F" ?
8.67 mL/min/kg
